- procedure-details: xn = mol fraction of the nth substance listed, in the solute-free solvent
- applied-conditions: 278.15 K; x2 = 0.4
Outcome label depends on solubility (g/100 g solution) relative to 1: at/above gives fulfilled, below gives not fulfilled.

compound | assigned-category
Cc1c(Br)c(=O)n(C2CCCC2)c2nc(Cl)ncc12 + CCOC(C)=O + CCO | not fulfilled
CCOC(=O)OC1=C(c2cc(C)ccc2C)C(=O)NC12CCC(OC)CC2 (stereo not given) + CO + O | not fulfilled
Cc1ncc(CO)c(CO)c1O.Cl + O + CC(C)O | not fulfilled
CCOC(=O)OC1=C(c2cc(C)ccc2C)C(=O)NC12CCC(OC)CC2 (stereo not given) + CCO + O | fulfilled
Cc1c(Br)c(=O)n(C2CCCC2)c2nc(Cl)ncc12 + CC1=CC(=O)CC(C)(C)C1 + CC(C)O | not fulfilled
CCOC(=O)OC1=C(c2cc(C)ccc2C)C(=O)NC12CCC(OC)CC2 (stereo not given) + CC(C)=O + O | fulfilled
CCOC(=O)OC1=C(c2cc(C)ccc2C)C(=O)NC12CCC(OC)CC2 (stereo not given) + CC(C)O + O | fulfilled
Cc1c(Br)c(=O)n(C2CCCC2)c2nc(Cl)ncc12 + C1CCOC1 + CCO | fulfilled

In: Is the recorded value of solubility (g/100 g solution) equal to or greater than 1 for this compound? Cc1ncc(CO)c(CO)c1O.Cl + O + CC#N
Out: fulfilled

In: Test whether the compound Cc1ncc(CO)c(CO)c1O.Cl + O + CCCO records solubility (g/100 g solution) of 1 or higher.
Out: fulfilled
